Target: T1, human CD19 (human, UniProt P15391 20-556)
T1 construct: CD19 as expressed on Raji, NALM-6 and SU-DHL-6 cells; also called CD19 antigen; B-cell surface antigen B4
T1 sequence: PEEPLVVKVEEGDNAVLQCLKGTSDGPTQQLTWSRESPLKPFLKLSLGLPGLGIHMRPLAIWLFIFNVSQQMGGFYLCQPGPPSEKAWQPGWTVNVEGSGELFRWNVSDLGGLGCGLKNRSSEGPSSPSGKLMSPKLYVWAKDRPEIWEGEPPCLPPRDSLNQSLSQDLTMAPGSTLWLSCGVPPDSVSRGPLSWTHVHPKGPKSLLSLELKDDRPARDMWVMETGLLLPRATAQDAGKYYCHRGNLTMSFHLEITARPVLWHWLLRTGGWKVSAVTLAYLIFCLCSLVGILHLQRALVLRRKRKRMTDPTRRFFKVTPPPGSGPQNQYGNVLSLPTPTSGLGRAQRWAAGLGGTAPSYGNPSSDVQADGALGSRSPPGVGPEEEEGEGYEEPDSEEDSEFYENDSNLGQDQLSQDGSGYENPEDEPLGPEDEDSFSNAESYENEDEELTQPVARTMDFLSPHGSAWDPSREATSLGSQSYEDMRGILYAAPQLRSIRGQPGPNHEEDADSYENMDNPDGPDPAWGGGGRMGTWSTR
Assay: flow cytometry, NALM-6 cells, MPF vs chimeric FMC63
endpoint_name: relative MPF (% of chimeric FMC63)
Remember to follow the number with its unit.

Examples with answers:
| binder | relative MPF (% of chimeric FMC63) |
| --- | --- |
| VH16-R94K/VL43-F71Y (antibody, human IgG1, V domains shown, Full-length human IgG1/kappa; substitutions in Kabat numbering) VH: QVQLVQSGGGVVQPGRSLRLSCAASGVSLPDYGVSWVRQAPGKGLEWVAVIWGSETTYYNSALKSRFTISRDNSKNTLYLQMNSLRAEDTAVYYCAKHYYYGGSYAMDYWGQGTLVTVSS VL: DIVMTQTPSSLSASVGDRVTITCRASQDISKYLNWYQQKPGKAPKLLIYHTSRLHSGVPSRFSGSGSGTDYTLTISSLQPEDFATYYCQQGNTLPYTFGPGTKVDIKR | 23.5% |
| VH16-G42R/VL43 (antibody, human IgG1, name in Kabat numbering, V domains shown, substitutions in Kabat numbering) VH: QVQLVQSGGGVVQPGRSLRLSCAASGVSLPDYGVSWVRQAPRKGLEWVAVIWGSETTYYNSALKSRFTISRDNSKNTLYLQMNSLRAEDTAVYYCARHYYYGGSYAMDYWGQGTLVTVSS VL: DIVMTQTPSSLSASVGDRVTITCRASQDISKYLNWYQQKPGKAPKLLIYHTSRLHSGVPSRFSGSGSGTDFTLTISSLQPEDFATYYCQQGNTLPYTFGPGTKVDIKR | 3.48% |

Shifting focus to the binder that follows.
Give the measured relative MPF (% of chimeric FMC63) for VH16-R94K/VL43-P44V (antibody, human IgG1, V domains shown, Full-length human IgG1/kappa; substitutions in Kabat numbering) VH: QVQLVQSGGGVVQPGRSLRLSCAASGVSLPDYGVSWVRQAPGKGLEWVAVIWGSETTYYNSALKSRFTISRDNSKNTLYLQMNSLRAEDTAVYYCAKHYYYGGSYAMDYWGQGTLVTVSS VL: DIVMTQTPSSLSASVGDRVTITCRASQDISKYLNWYQQKPGKAVKLLIYHTSRLHSGVPSRFSGSGSGTDFTLTISSLQPEDFATYYCQQGNTLPYTFGPGTKVDIKR
32.9%
